Assayed Target: T1, BsoBI D246E (UniProt P70985 P70985:1-323, D246E)
T1 sequence: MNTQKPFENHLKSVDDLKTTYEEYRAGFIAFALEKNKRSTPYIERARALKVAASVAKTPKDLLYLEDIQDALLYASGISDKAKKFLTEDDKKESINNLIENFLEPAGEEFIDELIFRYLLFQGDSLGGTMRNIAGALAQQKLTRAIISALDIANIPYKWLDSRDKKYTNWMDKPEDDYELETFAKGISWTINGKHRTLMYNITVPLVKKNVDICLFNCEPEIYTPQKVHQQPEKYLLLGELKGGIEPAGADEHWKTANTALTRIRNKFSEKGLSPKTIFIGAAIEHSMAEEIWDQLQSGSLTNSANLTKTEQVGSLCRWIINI
Method Description: filter; 4 mM CaCl2; ±683
Experimental Context: chain copies: 2 inferred; label: 33P 5' end

{"Binder": "S2 (CCCGGG) (dsDNA) DNA 1: GAGTGTTATGGGTAGCCCGGGTGAAGTGGGAATATC DNA 2: GATATTCCCACTTCACCCGGGCTACCCATAACACTC", "Kd [nM]": 2.84}
